Answer each item with its documented log10 intrinsic clearance, human liver microsomes.
Hi team, quick reminder: these entries are log10 of intrinsic clearance, human liver microsomes (mL/min/kg).

In the examples that follow, each entry is paired with its recorded log10 intrinsic clearance, human liver microsomes.
{"compound": "CC(=O)N1CCc2c(sc(NC(=O)C(C)C)c2-c2nc3ccccc3s2)C1", "readout.number": 1.40}
{"compound": "O=c1c2ccccc2nc2n1CCN(Cc1ccc(F)cc1)CC2", "readout.number": 1.57}
{"compound": "Cc1cc(Nc2ccc(F)cn2)cc(C2CCN(C(=O)COc3ccccc3F)C2)n1 (configuration not stated)", "readout.number": 2.06}
{"compound": "CCCN(C(=O)c1ccc(COC)o1)c1nc2c(s1)CCc1c-2cnn1C", "readout.number": 1.88}

// next item, log10 intrinsic clearance, human liver microsomes requested
The compound listed as Cn1c(CNC(=O)Cc2ccccc2)nc2ccccc21 has a reported log10 intrinsic clearance, human liver microsomes of 0.88

----------
- assay.setup: pH 6.8
aqueous solubility vs 20 µg/mL: at or above is criterion met, below is criterion not met.

{"compound": "Cc1cc(C(=O)NCC2CC2)n2nccc2n1", "class": "criterion met"}
{"compound": "CC(C)(O)CNc1ncc(-c2ccnc(Nc3ccnc(Cl)c3)n2)c(CC2CC2)n1", "class": "criterion met"}
{"compound": "CC(Oc1ccc(Cl)cc1)C(=O)N1CCC(n2c(=O)[nH]c3ccccc32)CC1 (stereo unspecified)", "class": "criterion met"}
{"compound": "Cc1nn(C)c2nc(C(C)C)cc(C(=O)O)c12", "class": "criterion met"}
{"compound": "O=c1sn(-c2cccc3ccccc23)c(=O)n1Cc1ccccc1", "class": "criterion not met"}

Could you now look at the following compound, please?
**Query** Tell me whether aqueous solubility is at least 20 µg/mL here: O=C1NC2(CCCC2)C(=O)N1Cc1ccccc1F
**Result** criterion met

----------
Mark rule met only for intrinsic clearance, human liver microsomes values smaller than 20 mL/min/kg; exact matches and larger values are rule not met.

Solved cases below.
{"compound": "COc1ccncc1NCc1ccc2c(c1)OCCO2", "class": "rule met"}
{"compound": "CSC1(CNc2cc(C)nc(C)n2)CCOCC1", "class": "rule met"}
{"compound": "C1CN(c2nc3c(c(N4CCSCC4)n2)SCC3)CCS1", "class": "rule not met"}
{"compound": "CN1C(N)=N[C@](C)(c2cc(NC(=O)c3ccc(F)cn3)ccc2F)CS1(=O)=O", "class": "rule met"}

Could you now look at the following compound, please?
**Query** State whether 20 mL/min/kg exceeds intrinsic clearance, human liver microsomes recorded for N#CN1CCC[C@H](n2nc(-c3ccc(Oc4ccc(F)cc4F)cc3)c(C(N)=O)c2N)C1 .
**Result** rule met

----------
Answer each item with its documented aqueous solubility.
- assay.setup: pH 6.8
Give bare numbers, in µg/mL.

In the examples that follow, each entry is paired with its recorded aqueous solubility.
{"molecule": "CCOc1ccccc1NC(=O)C(=O)NCc1ccccc1F", "uom": "µg/mL", "aqueous solubility": 0.34}
{"molecule": "COc1cccc(OC)c1-c1cc(C(=O)N[C@@H](CC(C)C)C(=O)O)nn1-c1ccnc2cc(Cl)ccc12", "uom": "µg/mL", "aqueous solubility": 90.4}
{"molecule": "N#Cc1cc(F)c(C(=O)Nc2ccnc(NC(=O)[C@H]3C[C@H]3F)c2)c(Cl)c1", "uom": "µg/mL", "aqueous solubility": 67.5}
{"molecule": "Cc1ccc(OCc2noc(-c3ccsc3)n2)cn1", "uom": "µg/mL", "aqueous solubility": 52.7}
{"molecule": "Cc1ccccc1CC(=O)N1CCN(C(=O)c2ccccc2)CC1", "uom": "µg/mL", "aqueous solubility": 44.3}

Would you mind listing aqueous solubility for each of the following molecules?
1. C[C@@H](c1ccc2ccc(O[C@H]3CC[C@@H](C(F)(F)F)CC3)c(C(F)(F)F)c2c1)N1C2CCC1CC(C(=O)O)C2 (stereo not given in full)
2. c1ccc(-n2cc(CNc3ncccn3)cn2)cc1
3. Cc1ncc(CN2CC[C@@H](Nc3cncc(Cl)n3)[C@@H](C)C2)s1
4. O=C(NCC#CCN1CCc2ccccc2C1)NCc1ccc(F)cc1

**Result**
73.2
41.1
52.8
33.5

The molecule listed as Fc1cccc(N[C@H]2CCCN[C@H]2Cc2ccccc2)c1 has a reported aqueous solubility of 42.6

----------
Answer each item with its documented intrinsic clearance, human liver microsomes.
One number for each entry, in mL/min/kg.

In the examples that follow, each entry is paired with its recorded intrinsic clearance, human liver microsomes.
{"compound.smiles": "Cc1nn(C(C)C)c(C)c1S(=O)(=O)NCC1CCN(C(=O)C2CC2)CC1", "uom": "mL/min/kg", "readout.number": 92.1}
{"compound.smiles": "CCOc1ccc2[nH]c(C(=O)N3CC[C@@](O)(CC(C)C)[C@@H](Oc4ccc(F)cc4)C3)c(C)c2c1", "uom": "mL/min/kg", "readout.number": 109}
{"compound.smiles": "Cc1nnc2ccc(N3CCC4(CCCCC4)C3)nn12", "uom": "mL/min/kg", "readout.number": 33.2}
{"compound.smiles": "Cc1cc(C)c(S(=O)(=O)Nc2ccc(N(C)C)cc2)c(C)c1-n1cnnn1", "uom": "mL/min/kg", "readout.number": 118}
{"compound.smiles": "Cc1nc(N2CCOc3ccccc3C2)c2cnn(C)c2n1", "uom": "mL/min/kg", "readout.number": 62.7}
{"compound.smiles": "CN1C(=O)[C@H]2CN(CC3=CC[C@H]4C[C@@H]3C4(C)C)C[C@H]2C1=O", "uom": "mL/min/kg", "readout.number": 207}

// next item, intrinsic clearance, human liver microsomes requested
The compound listed as CCCc1nn(CCCN2CCCCC2)c(=O)o1 has a reported intrinsic clearance, human liver microsomes of 13.6

----------
measurement.name: MDR1-MDCK efflux ratio
Answers are plain numbers.

In the examples that follow, each entry is paired with its recorded MDR1-MDCK efflux ratio.
{"molecule": "NC(=O)CN1CCC(Oc2cccc(F)c2)CC1", "MDR1-MDCK efflux ratio": 0.543}
{"molecule": "Cc1ccc2c(C(=O)N(C)C)cc(-c3cnc(C(C)C)nc3)nc2c1C", "MDR1-MDCK efflux ratio": 1.95}
{"molecule": "Brc1ccc(-c2nnc(Cn3cnc4ccccc43)o2)o1", "MDR1-MDCK efflux ratio": 0.976}
{"molecule": "COc1ccc(C(=O)c2ccccc2)c(Oc2nc3c(c(=O)n(C)c(=O)n3C)n2C)c1", "MDR1-MDCK efflux ratio": 1.83}
{"molecule": "O=C(Nc1ccc(COC2CCCC2)cc1)N1CCC(CO)CC1", "MDR1-MDCK efflux ratio": 5.55}

Would you mind listing MDR1-MDCK efflux ratio for each of the following molecules?
1. CC(=O)NCC1CCN(C(=O)c2ccc(C)nc2)CC1
2. Cc1ccc(OCN2CCCCC2=O)nc1
3. O=C(c1cc(F)ccc1F)N1CCN(C(=O)C2CC2)CC1
4. CC(=O)NC[C@H]1C[C@]2(C)[C@@H](CCCC[C@]2(C)O)N1CC1(O)CCOCC1

**Result**
130
2.63
1.21
9.46

----------
Mark 1 (yes) only for intrinsic clearance, rat liver microsomes values smaller than 800 mL/min/kg; exact matches and larger values are 0 (no).

Solved cases below.
{"compound.smiles": "COc1cc([C@@H]2c3cc4c(cc3[C@H](O)[C@H]3COC(=O)[C@@H]23)OCO4)cc(OC)c1OC", "class": "0 (no)"}
{"compound.smiles": "O=c1c2cnccc2ncn1Cc1ccc2c(c1)CCCO2", "class": "1 (yes)"}
{"compound.smiles": "CN(Cc1ccc(N)nc1)c1ncccn1", "class": "1 (yes)"}
{"compound.smiles": "Cc1cc(C(=O)Nc2ccc(C)c(C)c2)n(-c2ccccc2)n1", "class": "0 (no)"}
{"compound.smiles": "CC(=O)Nc1ccccc1OCCOc1ccc(Cl)cc1", "class": "1 (yes)"}
{"compound.smiles": "Cc1nccc(-c2cn(Cc3ccccc3)c3cnccc23)n1", "class": "0 (no)"}

**Query** State whether 800 mL/min/kg exceeds intrinsic clearance, rat liver microsomes recorded for CNC(=O)N1CCc2nc3ccc(Cl)cn3c(=O)c2C1 .
**Result** 1 (yes)

**Query** State whether 800 mL/min/kg exceeds intrinsic clearance, rat liver microsomes recorded for COc1ccc(S(=O)(=O)N2CCC[C@H](C(=O)Nc3cccc4ncccc34)C2)cc1 .
**Result** 1 (yes)

**Query** State whether 800 mL/min/kg exceeds intrinsic clearance, rat liver microsomes recorded for CN1CCC(CNC(=O)c2ncoc2-c2ccc(F)cc2)CC1 .
**Result** 1 (yes)

**Query** State whether 800 mL/min/kg exceeds intrinsic clearance, rat liver microsomes recorded for Cc1noc(OCC(=O)N2CCCCCC2)n1 .
**Result** 1 (yes)

----------
Answer each item with its documented MDR1-MDCK efflux ratio.
Answers are plain numbers.

In the examples that follow, each entry is paired with its recorded MDR1-MDCK efflux ratio.
{"compound.smiles": "CCc1cc(CNC(=O)Nc2ccc(N3CCSCC3)cc2)on1", "MDR1-MDCK efflux ratio": 19.2}
{"compound.smiles": "O=C1N[C@@H]2CCN(C(=O)c3ccc(-c4ccccc4)cc3)[C@@H]2C(=O)N1c1ccc(F)cc1", "MDR1-MDCK efflux ratio": 44.4}
{"compound.smiles": "COc1ccc(Cl)cc1NC(=O)CN1CCCN(c2ccc(C(F)(F)F)cn2)CC1", "MDR1-MDCK efflux ratio": 1.75}
{"compound.smiles": "c1ccc(C2(c3ccccc3)CCCN(Cc3nnc(C4CC4)o3)C2)cc1", "MDR1-MDCK efflux ratio": 0.685}
{"compound.smiles": "CN(Cc1cscn1)c1nc2c(cc1C#N)CCC2", "MDR1-MDCK efflux ratio": 0.641}

Would you mind listing MDR1-MDCK efflux ratio for each of the following molecules?
1. Cc1cc(C)c2ccc(C(=O)N3CCN(c4nc[nH]n4)CC3)cc2n1
2. N#Cc1ccc(COc2cccc(C3CCN(Cc4nc5ccc(C(=O)O)cc5n4C[C@@H]4CCO4)CC3)n2)c(F)c1
3. COc1ccc(C2(NCc3ccc(N4CCCC4=O)cc3)CC2)cc1
4. Cc1ccc(C(=O)NCCc2ccc(F)cc2)o1
5. Cc1cc(-c2nncc3c(C(C)(C)C)c(OCc4ncnn4C)nn23)no1

**Result**
[70.8, 35.5, 0.512, 0.511, 8.04]
